- tested-target: mGPDH (Rattus norvegicus, UniProt P35571)
- Construct: Activity of mGPDH in frozen-thawed skeletal muscle mitochondria was measured; from tissue; host or cells: skeletal muscle mitochondria
- Sequence (P35571 43-727): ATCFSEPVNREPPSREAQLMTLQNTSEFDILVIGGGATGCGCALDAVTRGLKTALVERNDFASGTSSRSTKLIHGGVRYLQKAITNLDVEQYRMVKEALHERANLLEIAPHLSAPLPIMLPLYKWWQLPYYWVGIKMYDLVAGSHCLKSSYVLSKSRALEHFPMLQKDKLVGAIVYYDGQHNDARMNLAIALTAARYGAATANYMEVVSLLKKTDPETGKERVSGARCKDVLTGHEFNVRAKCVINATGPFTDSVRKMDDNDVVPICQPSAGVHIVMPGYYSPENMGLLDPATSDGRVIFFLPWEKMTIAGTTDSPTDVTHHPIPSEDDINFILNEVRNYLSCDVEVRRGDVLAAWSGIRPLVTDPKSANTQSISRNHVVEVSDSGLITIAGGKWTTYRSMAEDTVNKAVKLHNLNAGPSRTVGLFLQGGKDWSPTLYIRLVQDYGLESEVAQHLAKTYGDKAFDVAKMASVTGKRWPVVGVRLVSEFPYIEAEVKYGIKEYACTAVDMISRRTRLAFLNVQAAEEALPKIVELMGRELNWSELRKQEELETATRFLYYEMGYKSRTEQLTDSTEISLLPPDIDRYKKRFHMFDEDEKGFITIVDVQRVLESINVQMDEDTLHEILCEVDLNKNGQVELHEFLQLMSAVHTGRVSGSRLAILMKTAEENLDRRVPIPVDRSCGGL
- protocol: Superoxide/H2O2 production by mGPDH in isolated skeletal muscle mitochondria (Amplex UltraRed)
- Type: biochemical
- condition-parameters: primary screen, ∼2.5 µM, average of duplicates; 16.7 mM glycerol phosphate, no added calcium
value-kind: mGPDH (% change from DMSO) (%)

1 = COc1ccc(NCc2ccccc2)cc1
2 = O=C(O)CCC(=O)Nc1ccc(-c2nc3ccccc3o2)cc1
3 = CC(C)c1nnc(NC(=O)c2cccc([N+](=O)[O-])c2)s1
4 = Nc1ccc(-c2nc3ccc(N)cc3[nH]2)cc1
Ask | Rank ascending by mGPDH (% change from DMSO). Respond with the label ranking, as requested.
Reply | 4, 1, 3, 2
(4: -72.6%, 1: -28.0%, 3: -17.8%, 2: -12.2%)

a = O=S(=O)(Nc1ccc(O)c(Br)c1)c1ccc(Cl)cc1
b = COc1cc(CN2CCOCC2)ccc1O
Ask | Of a versus b , which is the one with smaller reported mGPDH (% change from DMSO)? Reply with the label of the item you choose.
Reply | a
(a: -23.5%, b: -11.3%)

I = O=[N+]([O-])c1ccc2[nH]c(-c3ccccc3)cc2c1
II = Nc1cc(S(=O)(=O)c2ccc(O)c(N)c2)ccc1O
Ask | I'd appreciate it if you could identify which of I and II has the greater mGPDH (% change from DMSO). Returns: label corresponding to the selected item.
Reply | I
(I: -19.8%, II: -37.3%)

This collection of values is drawn from paper PMC3933693.
